TARGET_SYSTEM: Human FXRα Ligand Binding Domain (FXRα LBD) (Homo sapiens)
Construct: polyhistidine (N); made in house; host or cells: E. coli BL21 (DE3), pRSET-A vector
Sequence (Q96RI1 222-472 isoform Q96RI1-2): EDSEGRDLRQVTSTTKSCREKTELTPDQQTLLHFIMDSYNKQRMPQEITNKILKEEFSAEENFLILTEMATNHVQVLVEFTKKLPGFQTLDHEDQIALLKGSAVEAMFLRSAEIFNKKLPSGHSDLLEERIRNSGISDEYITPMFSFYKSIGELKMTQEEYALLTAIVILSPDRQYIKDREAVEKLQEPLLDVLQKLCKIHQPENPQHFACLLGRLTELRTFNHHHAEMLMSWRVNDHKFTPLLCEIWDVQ
PROTOCOL: FXR Affinity Binding Assay: ligand mediated cofactor peptide (SRC-1 LCD2, 676-700) interaction, time resolved fluorescence
MEASUREMENT_PARAMETERS: FXRα LBD-APC / europium labeled SRC-1 peptide, TRF signal, at least 2 hours at room temperature; read-out: Activity (pEC50) (converted)
Collected EC50 values appear next to each entry.

Past entries and their recorded results:
COMPOUND	EC50
Cc1cc(OCc2c(-c3c(Cl)cc(Cl)cc3Cl)noc2C(C)C)ccc1N(C)Cc1cccc(C(=O)O)c1 [Example 14]	102 to 1000 nM
COC(=O)c1cccc(SCc2ccc(OCc3c(-c4ccccc4OC(F)(F)F)noc3C(C)C)cc2Cl)c1 [Example 88]	102 to 1000 nM
COC(=O)c1ccc(OCc2ccc(OCc3c(-c4c(Cl)cccc4Cl)noc3C(C)C)cc2Cl)cc1 [Example 75]	102 to 1000 nM
CC(C)c1onc(-c2c(Cl)cccc2Cl)c1COc1ccc(N(C)C(=O)c2cccc(C(=O)O)c2)c(Cl)c1 [Example 30]	102 to 1000 nM

// next entry
Request: // fetch Human FXRα Ligand Binding Domain (FXRα LBD) (Homo sapiens) EC50 for Cc1cc(OCc2c(-c3ccccc3OC(F)(F)F)noc2C(C)C)ccc1N(C)Cc1ccc(C(=O)O)o1 [Example 18]
Result: < 100 nM

// provenance: patent US7319109B2
